assay: Permeability of the compound at pH 5.0 by PAMPA assay; format: physicochemical; conditions: read-out: permeability
Parameter measured: Papp (×10⁻⁶ cm/s)
// units = ×10⁻⁶ cm/s; emit number, no label

Incoming: I am curious: what Papp value has been reported for C[C@@H](COc1cnc(-c2ccc(Oc3cccc(OCC4CC4)c3)cc2)o1)NC(N)=O ?
Outgoing: 24.8

====

Hi there, I'd appreciate the recorded log10 of solubility for every entry that follows.
assay: Solubility of the compound at pH 6.8; type: physicochemical; settings: buffer
Kindly note that the scale is log10 and the underlying solubility is in µg/mL.

Incoming: I am curious: what log10 of solubility value has been reported for CC(=O)NC(C)c1ccc2nc(-c3ccc(Oc4cccc(OCC5CC5)c4)nc3)oc2c1 (centres undefined) ?
Outgoing: 0.20

Incoming: Next compound: CC(=O)NC(C)CCc1cnc(-c2ccc(Oc3cccc(OCC4CC4)c3)cc2)o1 (centres undefined)
Outgoing: 0.30

Incoming: Next compound: CC(=O)N[C@@H](C)COc1cnc(-c2ccc(Oc3cccc(OCC4CC4)c3)nc2)o1
Outgoing: 0.97

Incoming: Next compound: CC(=O)N[C@@H](C)COc1cnc(-c2ccc(Oc3cccc(OCC4CC4)c3)cc2)o1
Outgoing: 0.43

Incoming: Next compound: CC(=O)N[C@@H](C)COc1cnc(-c2ccc(Oc3cccc(OCC4CC4)c3)cn2)o1
Outgoing: 1.28

Incoming: Next compound: CCCCCc1cccc(OC2CN(c3nc4ccc(C(C)NC(C)=O)cc4o3)C2)c1 (centres undefined)
Outgoing: -0.36

Incoming: Next compound: C[C@@H](COc1cnc(-c2ccc(Oc3cccc(OCC4CC4)c3)cc2)o1)NC(N)=O
Outgoing: 0.23
